System: rodent lifetime carcinogenesis bioassay, tumor incidence TD50
assay info: carcinogenic potency in animals, long-term in vivo studies, CPDB compilation (AID 1745844)
run parameters: rat; strain Fischer 344; males; in feed; site: adrenal gland; lesion: pheochromocytoma + pheochromocytoma, malignant; dosed 103 weeks; study length 105 weeks
measured metric: TD50 (mg/kg/day)
One number for each entry, in mg/kg/day.

Can you look up the measured TD50 of `CCCOC(=O)c1cc(O)c(O)c(O)c1` for me?
613

* * *

System: rodent lifetime carcinogenesis bioassay, tumor incidence TD50
assay info: carcinogenic potency in animals, long-term in vivo studies, CPDB compilation (AID 1745844)
run parameters: mouse; strain C57L; females; by gavage; site: pituitary gland; lesion: one or several types; types not named; dosed 89 weeks; study length 89 weeks
Answer each item with its documented TD50.

Query for rodent lifetime carcinogenesis bioassay, tumor incidence TD50: what TD50 does the record show for C#C[C@]1(O)CC[C@H]2[C@@H]3CCc4cc(OC)ccc4[C@H]3CC[C@@]21C (tested in a mixture with another compound) ?
0.151 mg/kg/day

# input for lookup
Query for rodent lifetime carcinogenesis bioassay, tumor incidence TD50: what TD50 does the record show for C#C[C@]1(OC(C)=O)CC[C@H]2[C@@H]3CCC4=CC(=O)CC[C@@H]4[C@H]3CC[C@@]21C (tested in a mixture with another compound) ?
1.34 mg/kg/day
